Test system: SNB-78
Test: NCI tumour cell line growth inhibition, 48 h
Calls of active or inactive are those of the source. Cut-off read from the data, not from the text of the source: active = GI50 up to about 1.1 µM and inactive = higher.
Output constraint: value belongs to true (1) = active, false (0) = inactive

Consider the worked cases shown below.
{"MOLECULE": "COc1cc2c(c(OC)c1O)-c1ccc(SC)c(=O)cc1C(NC(C)=O)CC2 (stereo not given)", "CLASS NAME": "true (1)"}
{"MOLECULE": "C[C@@H]1[C@@H]2[C@@H](C=C3C4CCC5Cc6nc7c(nc6C[C@@]5(C)C4C[C@H](O)[C@]32CO)CC2CCC3C4=C[C@H]5O[C@@]6(OC(C)(CO)C[C@@H]6O)[C@H](C)[C@@]5(O)[C@]4(C)[C@@H](O)CC3[C@]2(C)C7)O[C@]12CCC(C)(C)O2 (stereo not given in full)", "CLASS NAME": "true (1)"}
{"MOLECULE": "CNC(=O)OCc1nc(SC2CCCCO2)n(C)c1COC(=O)NC (stereo not given)", "CLASS NAME": "false (0)"}
{"MOLECULE": "Cn1c(NC(=O)NC23CC4CC(CC(C4)C2)C3)nc2ccccc21", "CLASS NAME": "false (0)"}
{"MOLECULE": "Cc1cc(C)nc(NS(=O)(=O)c2ccc(Nc3c4ccccc4nc4c(C(=O)N5CCN(CCOS(C)(=O)=O)CC5)cccc34)cc2)n1", "CLASS NAME": "false (0)"}
{"MOLECULE": "COCOCCCCCO[Si](C)(C)C(C)(C)C", "CLASS NAME": "false (0)"}
{"MOLECULE": "CC(C)(CN1CCCCC1)C(=O)CC(SCCS(=O)(=O)O)c1ccc(Br)cc1 (stereo not given)", "CLASS NAME": "false (0)"}
{"MOLECULE": "CCCCCC(=O)Nc1nc(O)c2[nH]cnc2n1", "CLASS NAME": "false (0)"}

QUERY: Outcome logged for COc1ccc2c3c([nH]c2c1[N+](=O)[O-])C(C)N(C(=O)/C=C/c1ccccc1)CC3 (stereo not given) in this assay:
RESULT: false (0)

QUERY: Would you mind telling me which call this test gave CC1Oc2c(c(O)cc3oc(=O)cc(-c4ccccc4)c23)C(=O)C1C (stereo not given) ?
RESULT: false (0)
